Molecular target: Human HER3, endogenous, on human cancer cell lines (SK-Br-3, MCF7, BT-474) (human, UniProt P21860 20-1342)
Sequence (P21860 20-1342): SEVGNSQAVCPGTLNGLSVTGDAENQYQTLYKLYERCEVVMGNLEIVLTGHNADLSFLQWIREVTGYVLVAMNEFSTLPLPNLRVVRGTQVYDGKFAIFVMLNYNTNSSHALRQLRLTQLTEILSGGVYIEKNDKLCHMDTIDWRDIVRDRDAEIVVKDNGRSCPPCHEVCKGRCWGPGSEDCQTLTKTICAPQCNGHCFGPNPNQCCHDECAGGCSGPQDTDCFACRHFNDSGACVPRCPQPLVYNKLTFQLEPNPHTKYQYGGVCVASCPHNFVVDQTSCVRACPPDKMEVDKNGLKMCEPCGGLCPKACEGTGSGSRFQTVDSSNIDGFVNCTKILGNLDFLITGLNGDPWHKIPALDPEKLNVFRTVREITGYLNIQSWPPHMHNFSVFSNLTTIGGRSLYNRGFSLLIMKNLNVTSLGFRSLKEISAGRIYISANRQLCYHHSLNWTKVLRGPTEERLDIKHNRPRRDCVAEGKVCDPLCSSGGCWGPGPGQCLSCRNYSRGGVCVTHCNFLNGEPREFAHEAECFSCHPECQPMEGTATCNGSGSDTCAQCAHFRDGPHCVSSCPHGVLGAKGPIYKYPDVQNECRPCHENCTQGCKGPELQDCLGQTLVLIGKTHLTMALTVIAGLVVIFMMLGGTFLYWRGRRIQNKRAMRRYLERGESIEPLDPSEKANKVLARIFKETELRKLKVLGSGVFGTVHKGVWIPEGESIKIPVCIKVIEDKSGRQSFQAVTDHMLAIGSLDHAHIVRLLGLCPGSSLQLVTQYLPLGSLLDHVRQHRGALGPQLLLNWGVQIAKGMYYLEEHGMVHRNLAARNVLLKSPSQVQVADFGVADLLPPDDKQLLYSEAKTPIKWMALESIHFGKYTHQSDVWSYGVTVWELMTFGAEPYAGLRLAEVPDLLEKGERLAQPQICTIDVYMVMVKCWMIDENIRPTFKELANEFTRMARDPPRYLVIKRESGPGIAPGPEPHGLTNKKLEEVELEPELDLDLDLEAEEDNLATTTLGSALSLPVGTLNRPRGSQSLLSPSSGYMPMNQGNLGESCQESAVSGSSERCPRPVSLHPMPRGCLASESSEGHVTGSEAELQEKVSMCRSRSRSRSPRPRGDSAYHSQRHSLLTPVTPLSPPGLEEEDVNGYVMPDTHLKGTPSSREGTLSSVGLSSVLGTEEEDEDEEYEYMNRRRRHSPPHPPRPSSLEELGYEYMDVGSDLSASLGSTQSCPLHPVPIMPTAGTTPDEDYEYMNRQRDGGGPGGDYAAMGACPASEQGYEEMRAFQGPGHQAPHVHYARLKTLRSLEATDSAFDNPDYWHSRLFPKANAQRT
Assay: cell-based or functional assay
measure: SK-Br-3 pAkt (S473) % inhibition (%)
Value expressed in %; do not type the unit.

1. MOR13761 (antibody, human IgG1, kappa, V domains shown, tested as IgG) VH: QVQLVQSGAEVKKPGESLKISCKGSGYSFTQTWVAWVRQMPGKGLEWMGIIYPGQSDTIYSPSFQGQVTISADKSISTAYLQWSSLKASDTAMYYCARVHIIQPPSAWSYNAMDVWGQGTLVTVSS VL: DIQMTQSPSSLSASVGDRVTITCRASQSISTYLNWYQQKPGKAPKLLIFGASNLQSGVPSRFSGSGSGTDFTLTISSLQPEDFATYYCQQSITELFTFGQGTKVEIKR ... 86
2. MOR13867 (antibody, human IgG1, kappa, V domains shown, tested as IgG) VH: QVQLVQSGAEVKKPGESLKISCKGSGYSFSNYWIAWVRQMPGKGLEWMGIIYPGQSDTIYSPSFQGQVTISADKSISTAYLQWSSLKASDTAMYYCARVHIIQPPSAWSYNAMDVWGQGTLVTVSS VL: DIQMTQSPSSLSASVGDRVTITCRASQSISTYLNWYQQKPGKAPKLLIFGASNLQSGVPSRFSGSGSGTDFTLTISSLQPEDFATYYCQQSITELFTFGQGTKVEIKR ... 95

Incoming: Let me know recorded SK-Br-3 pAkt (S473) % inhibition for MOR13762 (antibody, human IgG1, kappa, V domains shown, tested as IgG) VH: QVQLVQSGAEVKKPGESLKISCKGSGYSFTNTWVAWVRQMPGKGLEWMGIIYPGQSDTIYSPSFQGQVTISADKSISTAYLQWSSLKASDTAMYYCARVHIIQPPSAWSYNAMDVWGQGTLVTVSS VL: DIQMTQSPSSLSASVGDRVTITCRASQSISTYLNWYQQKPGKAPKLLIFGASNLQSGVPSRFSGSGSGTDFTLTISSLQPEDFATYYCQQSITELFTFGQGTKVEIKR , thanks.
Outgoing: 86

Just for reference, patent US20130273029A1 is where these values come from.
